Exercise: state measured IC50 for each of the molecules provided.
Molecular target: PIM3 (Homo sapiens, UniProt Q86V86)
Construct: purchased SignalChem, Richmond, Canada P37-10BG
Assay: LANCE Ultra kinase assay, PIM3
Assay type: biochemical
Details: LANCE assay, ATP 0.1 mM

Examples from the recorded data:
O=C1NC(=O)c2c1c1c3ccc(O)cc3[nH]c1c1c2c2ccc(O)cc2n1CCN1CCCCC1
1 nM
O=C1NC(=O)c2c1c1c3cc(F)c(O)cc3[nH]c1c1c2c2cc(F)c(O)cc2n1CCN1CCOCC1
1.1 nM
O=C1NC(=O)c2c1c1c3cc(F)ccc3[nH]c1c1c2c2cc(F)ccc2n1CCN1CCCCC1
0.8 nM

Req: Given `C[C@@H]1CCC[C@H](C)N1CCn1c2cc(O)c(F)cc2c2c3c(c4c5cc(F)c(O)cc5[nH]c4c21)C(=O)NC3=O` , state its recorded IC50.
Resp: 3 nM

----------
Target: PIM1 (Homo sapiens)
Construct: purchased ProQinase, Freiburg, Germany 0186-0000-1
Sequence (P11309 whole entry): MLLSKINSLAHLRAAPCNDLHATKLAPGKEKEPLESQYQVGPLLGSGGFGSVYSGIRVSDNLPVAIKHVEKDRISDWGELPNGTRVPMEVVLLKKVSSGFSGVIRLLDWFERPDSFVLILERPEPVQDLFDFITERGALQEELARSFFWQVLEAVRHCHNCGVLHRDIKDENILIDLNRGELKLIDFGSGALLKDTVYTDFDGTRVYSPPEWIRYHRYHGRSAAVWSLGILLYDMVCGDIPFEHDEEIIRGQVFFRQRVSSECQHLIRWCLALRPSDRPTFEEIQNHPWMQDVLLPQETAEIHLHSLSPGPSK
Assay: LANCE Ultra kinase assay, PIM1
Assay type: biochemical
Conditions: ATP 1 mM
property_label: IC50 (nM)
Answers are plain numbers, in nM.

Consider the reported IC50 for these compounds:
O=C1NC(=O)c2c1c1c3cc(F)c(O)cc3[nH]c1c1c2c2cc(F)c(O)cc2n1CCN1CCOCC1 [Compound 37]
0.93
O=C1NC(=O)c2c1c1c3cc(F)c(O)cc3[nH]c1c1c2c2ccccc2n1CCN1CCOCC1 [Compound 18]
1.7
O=C1NC(=O)c2c1c1c3ccccc3[nH]c1c1c2c2cc(F)c(O)cc2n1CCN1CCOCC1 [Compound 19]
0.82
O=C1NC(=O)c2c1c1c3ccc(O)cc3[nH]c1c1c2c2ccncc2n1CCN1CCOCC1 [Compound 42]
0.16
O=C1NC(=O)c2c1c1c3ccncc3[nH]c1c1c2c2ccc(O)cc2n1CCN1CCOCC1 [Compound 41]
0.42

Consider the record given below.
Req: // query IC50 value for entry O=C1NC(=O)c2c1c1c3ccc(O)cc3[nH]c1c1c2c2ccc(O)cc2n1CCN1CCOCC1 [Compound 32]
Resp: 2

----------
Target: PIM2 (Homo sapiens, UniProt Q9P1W9)
Construct: purchased ProQinase, Freiburg, Germany 0223-0000-1
Sequence (Q9P1W9 whole entry): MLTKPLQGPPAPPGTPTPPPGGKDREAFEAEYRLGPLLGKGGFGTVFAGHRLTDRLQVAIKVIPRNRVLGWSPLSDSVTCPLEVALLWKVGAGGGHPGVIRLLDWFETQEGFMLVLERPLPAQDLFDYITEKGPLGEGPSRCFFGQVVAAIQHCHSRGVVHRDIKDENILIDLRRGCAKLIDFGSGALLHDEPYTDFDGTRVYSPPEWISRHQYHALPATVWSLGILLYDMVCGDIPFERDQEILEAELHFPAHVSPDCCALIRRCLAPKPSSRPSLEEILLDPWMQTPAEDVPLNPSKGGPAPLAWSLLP
Test: Biochemical radiolabeled ATP kinase assay (Reaction Biology), PIM2
Details: 10 μM ATP
property_label: IC50 (nM)
Answers are plain numbers, in nM.

Req: Provide value of IC50 for this record tested with PIM2 (Homo sapiens, UniProt Q9P1W9): `O=C1NC(=O)c2c1c1c3ccccc3[nH]c1c1c2c2cc(F)c(O)cc2n1CCN1CCOCC1`
Resp: 6.7

----------
Target: PIM3 (Homo sapiens)
Construct: purchased SignalChem, Richmond, Canada P37-10BG
Test: LANCE Ultra kinase assay, PIM3
Type: biochemical
Conditions: LANCE assay, ATP 1 mM
Could you please report measured IC50 for the items listed next?
Give bare numbers, in nM.

Answered examples (5):
O=C1NC(=O)c2c1c1c3ccc(O)cc3[nH]c1c1c2c2ccncc2n1CCN1CCOCC1
1.9
O=C1NC(=O)c2c1c1c3ccc(O)cc3[nH]c1c1c2c2ccc(O)cc2n1CCN1CCOCC1
4.9
O=C1NC(=O)c2c1c1c3cc(F)c(O)cc3[nH]c1c1c2c2cc(F)c(O)cc2n1CCN1CCOCC1
5
O=C1NC(=O)c2c1c1c3ccccc3[nH]c1c1c2c2cc(F)c(O)cc2n1CCN1CCOCC1
4.3
O=C1NC(=O)c2c1c1c3cc(F)c(O)cc3[nH]c1c1c2c2ccccc2n1CCN1CCOCC1
9.5

Let us examine a further case.
Req: Please look up its IC50: `O=C1NC(=O)c2c1c1c3ccncc3[nH]c1c1c2c2ccc(O)cc2n1CCN1CCOCC1`
Resp: 1.6

----------
System: HepG2
Assay: CellTiter-Glo cancer cell growth inhibition, HepG2
Assay type: cell-based, human
Details: Homo sapiens, HepG2, 72 h
I'd appreciate it if you could supply pEC50 values for the items below.
Numbers only, as −log10 of the molar value.

O=C1NC(=O)c2c1c1c3cc(F)c(O)cc3[nH]c1c1c2c2ccccc2n1CCN1CCOCC1
7.12
O=C1NC(=O)c2c1c1c3ccc(O)cc3[nH]c1c1c2c2ccc(O)cc2n1CCN1CCCCC1
6.50
O=C1NC(=O)c2c1c1c3cc(F)ccc3[nH]c1c1c2c2cc(F)ccc2n1CCN1CCOCC1
7.40

With those in mind, consider the next compound.
Req: Query (compound): `O=C1NC(=O)c2c1c1c3cc(F)c(O)cc3[nH]c1c1c2c2cc(F)c(O)cc2n1CCN1CCOCC1` ; field requested: pEC50
Resp: 7.27

----------
Biological target: PIM2 (Homo sapiens, UniProt Q9P1W9)
Construct: purchased ProQinase, Freiburg, Germany 0223-0000-1
Experiment: LANCE Ultra kinase assay, PIM2
Assay type: biochemical
Conditions: ATP 1 mM
Consider the following compounds; for each one, report its pIC50.
Answers are plain numbers, as −log10 of the molar value.

The examples below pair each entry with its known result.
O=C1NC(=O)c2c1c1c3cc(F)c(O)cc3[nH]c1c1c2c2ccccc2n1CCN1CCOCC1
7.39
O=C1NC(=O)c2c1c1c3ccc(O)cc3[nH]c1c1c2c2ccncc2n1CCN1CCOCC1
7.74

# return pIC50 for each item in the list
1. O=C1NC(=O)c2c1c1c3ccncc3[nH]c1c1c2c2ccc(O)cc2n1CCN1CCOCC1
2. O=C1NC(=O)c2c1c1c3cc(F)c(O)cc3[nH]c1c1c2c2cc(F)c(O)cc2n1CCN1CCOCC1
3. O=C1NC(=O)c2c1c1c3ccccc3[nH]c1c1c2c2cc(F)c(O)cc2n1CCN1CCOCC1
4. O=C1NC(=O)c2c1c1c3ccc(O)cc3[nH]c1c1c2c2ccc(O)cc2n1CCN1CCOCC1

Resp:
1. 6.17
2. 6.74
3. 8.31
4. 6.32

----------
Test system: HepG2
Assay: CellTiter-Glo cancer cell growth inhibition, HepG2
Type: cell-based, human
Details: Homo sapiens, HepG2, 72 h
Record form. Attribute: pEC50. Fill in for each entry.
Give bare numbers, as −log10 of the molar value.

Example compounds with recorded pEC50:
CNC(=O)c1cc(Oc2ccc(NC(=O)Nc3ccc(Cl)c(C(F)(F)F)c3)c(F)c2)ccn1 [Regorafenib, reference compound]
5.37
O=C1NC(=O)c2c1c1c3ccc(O)cc3[nH]c1c1c2c2ccc(O)cc2n1CCN1CCOCC1
6.24
O=C1NC(=O)c2c1c1c3ccccc3[nH]c1c1c2c2cc(F)c(O)cc2n1CCN1CCOCC1
7.47

For every listed record, write down its pEC50.
1. C[C@@H]1CCC[C@H](C)N1CCn1c2cc(O)c(F)cc2c2c3c(c4c5cc(F)c(O)cc5[nH]c4c21)C(=O)NC3=O
2. CNC(=O)c1cc(Oc2ccc(NC(=O)Nc3ccc(Cl)c(C(F)(F)F)c3)cc2)ccn1 [Sorafenib, reference compound]

Resp:
1: 6.58; 2: 5.64

----------
Target: PIM3 (Homo sapiens)
Construct: purchased SignalChem, Richmond, Canada P37-10BG
Test: LANCE Ultra kinase assay, PIM3
Type: biochemical
Conditions: LANCE assay, ATP 0.1 mM
property_label: IC50 (nM)
Give bare numbers, in nM.

Past entries and their recorded results:
O=C1NC(=O)c2c1c1c3cc(F)ccc3[nH]c1c1c2c2cc(F)ccc2n1CCN1CCOCC1
0.7
C[C@@H]1CCC[C@H](C)N1CCn1c2ccc(F)cc2c2c3c(c4c5cc(F)ccc5[nH]c4c21)C(=O)NC3=O
2.4

// for each compound below, give its IC50
1. O=C1NC(=O)c2c1c1c3ccc(O)cc3[nH]c1c1c2c2ccc(O)cc2n1CCN1CCOCC1
2. O=C1NC(=O)c2c1c1c3ccccc3[nH]c1c1c2c2cc(F)c(O)cc2n1CCN1CCOCC1

Resp:
1: 1.2; 2: 1

----------
Biological target: PIM2 (Homo sapiens, UniProt Q9P1W9)
Construct: purchased ProQinase, Freiburg, Germany 0223-0000-1
Experiment: LANCE Ultra kinase assay, PIM2
Type: biochemical
Settings: ATP 0.1 mM
pIC50: −log10 of the molar value.
property_label: pIC50

O=C1NC(=O)c2c1c1c3cc(F)ccc3[nH]c1c1c2c2cc(F)ccc2n1CCN1CCCCC1 [Compound 51]
< 6.00
O=C1NC(=O)c2c1c1c3cc(F)ccc3[nH]c1c1c2c2cc(F)ccc2n1CCN1CCOCC1 [Compound 49]
< 6.00

Req: Quick check: pIC50 of C[C@@H]1CCC[C@H](C)N1CCn1c2ccc(F)cc2c2c3c(c4c5cc(F)ccc5[nH]c4c21)C(=O)NC3=O [Compound 53] ?
Resp: < 6.00
